Property: pIC50; scope: individual molecules
experiment: In vitro inhibitory concentration against Prostaglandin G/H synthase 1 enzyme activity
pIC50: −log10 of the molar value.

[
  {
    "molecule": "Cc1[nH]c2cc(S(C)(=O)=O)ccc2c1Oc1ccc(Cl)cc1",
    "pIC50": 4.52
  },
  {
    "molecule": "COc1ccc(C(=O)c2c(C)[nH]c3cc(S(C)(=O)=O)ccc23)cc1",
    "pIC50": "< 4.40"
  },
  {
    "molecule": "COc1ccc(Oc2c(C)[nH]c3cccc(S(C)(=O)=O)c23)cc1",
    "pIC50": "< 4.52"
  }
]
